Cited source: patent US20190322643A1

- target: Mouse histone methyltransferase G9a (969-1263) (Mus musculus)
- Construct: The 6His-sumo mG9a (969-1263) protein was purified using the following procedure; 6His-sumo (cleaved yes); made in house; host or cells: Escherichia coli BL21 (DE3)
- Sequence (Q9Z148 969-1263): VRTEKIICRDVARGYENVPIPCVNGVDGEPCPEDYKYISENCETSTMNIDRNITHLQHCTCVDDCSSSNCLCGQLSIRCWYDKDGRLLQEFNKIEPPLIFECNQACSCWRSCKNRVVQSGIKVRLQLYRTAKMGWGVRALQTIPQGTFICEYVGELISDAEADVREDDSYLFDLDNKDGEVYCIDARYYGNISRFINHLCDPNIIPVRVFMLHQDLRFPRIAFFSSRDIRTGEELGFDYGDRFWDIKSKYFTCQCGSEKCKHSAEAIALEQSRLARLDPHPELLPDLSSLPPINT
- assay: MALDI-TOF methylation study of G9a inhibition
- Assay type: biochemical
- test conditions: inhibitors at 5 μM concentration for 30 min
assay readout: inhibition at 5 µM (%)

1. COc1ccc2c(NC3CCN(Cc4ccccc4)CC3)nc(NCCNC(=O)CCCC(=O)NO)nc2c1; 40.3
2. COc1cc2nc(NCCNC(=O)CCCCCC(=O)NO)nc(NC3CCN(C(C)C)CC3)c2cc1OC; 47.5
3. COc1cc2nc(NCCNC(=O)CCCC(=O)NO)nc(NC3CCN(C(C)C)CC3)c2cc1OC; 15
